tested on: DU-145 (prostate) cancer cell line; experiment: MTT cell viability assay, DU-145; assay type: cell-based, human; details: Homo sapiens, DU-145, 48 h, read-out: Cell growth %, DU-145, 50 µM, 48 h, MTT
Assay metric: activity at 50 µM
Report field: quantity (unit follows the number).

>  <Compound>
C=CCNC(=O)c1cccc(C(=O)NC(=[Se])NCC=C)c1

>  <activity at 50 µM>
22%

$$$$
>  <Compound>
C=CCNC(=[Se])NC(=O)c1cccnc1 [Compound 7.II, N-(allylcarbamoselenoyl)nicotinamide]

>  <activity at 50 µM>
8.95%

$$$$
>  <Compound>
C#CCNC(=[Se])NC(=O)c1ccccc1

>  <activity at 50 µM>
26.3%

$$$$
>  <Compound>
C=CCNC(=[Se])NC(=O)c1ccccc1 [Compound 5.II, N-(allylcarbamoselenoyl)benzamide]

>  <activity at 50 µM>
10.3%

$$$$

Record activity at 50 µM per entry; entries follow.
1. C#CCNC(=[Se])NC(=O)/C=C/c1ccco1
2. C#CCNC(=[Se])NC(=O)c1ccc2c(c1)OCO2
3. C=CCNC(=[Se])NC(=O)/C=C/c1ccccc1 [Compound 6.II, N-(allylcarbamoselenoyl)cinnamamide]
4. C=CCNC(=[Se])NC(=O)/C=C/c1cccs1
5. C#CCNC(=[Se])NC(=O)c1ccco1
6. C=CCNC(=[Se])NC(=O)/C=C/c1ccc2c(c1)OCO2

(A)
["24.7%", "12.3%", "14.6%", "13.8%", "15.2%", "69.6%"]

Record activity at 50 µM per entry; entries follow.
1. CCCNC(=[Se])NC(=O)c1ccccc1 [Compound 5.I, N-(propylcarbamoselenoyl)benzamide]
2. C=CCNC(=[Se])NC(=O)c1ccc2c(c1)OCO2
3. C=CCNC(=[Se])NC(=O)/C=C/c1ccco1
4. CCCNC(=[Se])NC(=O)/C=C/c1ccccc1 [Compound 6.I, N-(propylcarbamoselenoyl)cinnamamide]
5. CCCNC(=[Se])NC(=O)c1cccs1

(A)
["47.9%", "10.3%", "10.4%", "12.6%", "50.2%"]

Record activity at 50 µM per entry; entries follow.
1. C=CCNC(=[Se])NC(=O)c1cccs1
2. CCCNC(=[Se])NC(=O)c1ccco1
3. C=CCNC(=[Se])NC(=O)c1cccc(C(=O)NC(=[Se])NCC=C)c1
4. C=CCNC(=[Se])NC(=O)c1ccco1
5. C#CCNC(=[Se])NC(=O)c1cccs1

(A)
7.33%
48.7%
18.8%
10.6%
14.3%

Hello, the source for this data is paper PMC10376326, in case you need it.
